These entries and their values trace back to BigSolDB 2.1.

details: in dichloromethane, 298.17 K
Reported endpoint: solubility (mole fraction)
One number for each entry.

Requested field: solubility (mole fraction). Item: O=C(O)CCP(=O)(O)c1ccccc1
0.00059

###

Could you please report measured solubility (mole fraction) for the items listed next?
conditions: in 2-ethoxyethanol, 303.18 K
Numbers only.

| Structure as smiles | solubility (mole fraction) |
| --- | --- |
| COc1ccc(P(=O)(c2ccc(OC)cc2)c2ccc(OC)cc2)cc1 | 0.00919 |
| O=P(O)(CO)c1ccccc1 | 0.0571 |
| COc1ccc(P(c2ccc(OC)cc2)c2ccc(OC)cc2)cc1 | 0.00862 |

Returns the measured solubility (mole fraction) for the input molecule. Input: O=C(O)CCP(=O)(O)c1ccccc1
0.0571
